Field: IC50. Provide a value for each of the compounds that follow.
test: Inhibition of Influenza A virus (A/goose/Guangdong/SH7/2013(H5N1)) neuraminidase using 4-MU-NANA as substrate preincubated for 5 mins followed by substrate addition and measured after 30 to 60 mins by fluorescence assay; set-up: species or system H5N1 subtype
Give the value, in units of nM, as a plain number.

Return reported IC50; argument: CCC(CC)O[C@@H]1C=C(C(=O)O)C[C@H](NCc2ccc(OCc3ccc(OC)cc3)cc2)[C@H]1NC(C)=O 730

Thanks! And CCC(CC)O[C@@H]1C=C(C(=O)O)C[C@H](NCc2ccc(OCc3ccccc3OC)cc2)[C@H]1NC(C)=O ? 1310

Thanks! And CCC(CC)O[C@@H]1C=C(C(=O)O)C[C@H](NCc2ccc(O[C@H](C)c3ccccc3)cc2)[C@H]1NC(C)=O ? 3670

Thanks! And CCC(CC)O[C@@H]1C=C(C(=O)O)C[C@H](NCc2ccc(NCc3ccc(F)cc3)cc2)[C@H]1NC(C)=O ? 2110

Thanks! And CC(=O)N[C@H]1[C@H]([C@H](O)[C@H](O)CO)OC(C(=O)O)=C[C@@H]1NC(=N)N ? 12

Thanks! And CCC(CC)O[C@@H]1C=C(C(=O)O)C[C@H](NCc2ccc(SCc3ccccc3)cc2)[C@H]1NC(C)=O ? 370

Thanks! And CCC(CC)O[C@@H]1C=C(C(=O)O)C[C@H](NCc2ccc(Oc3ccccc3C)cc2)[C@H]1NC(C)=O ? 310

Thanks! And CCC(CC)O[C@@H]1C=C(C(=O)O)C[C@H](N)[C@H]1NC(C)=O [OSELTAMIVIR CARBOXYLATE] ? 26

Every entry's value here was drawn from ChEMBL document CHEMBL4732133.
